IC50 values recorded for alpha-thrombin (Homo sapiens, UniProt P00734)
parameter_measured: IC50

compound	target_or_test_system	parameter_measured	experimental_value
N=C(N)N1CCCC(C[C@@H](C=O)NC(=O)CN2CCC[C@H](NS(=O)(=O)Cc3ccccc3)C2=O)C1 (single isomer, unassigned) [A]	alpha-thrombin (Homo sapiens, UniProt P00734)	IC50	0.0288 µM
N=C(N)N1CCCC(C[C@@H](C=O)NC(=O)CN2CCC[C@H](NS(=O)(=O)Cc3ccccc3)C2=O)C1 (single isomer, unassigned) [Isomer B]	alpha-thrombin (Homo sapiens, UniProt P00734)	IC50	0.0008 µM

----------
IC50 values recorded for Chymotrypsin (Bos taurus)
parameter_measured: IC50

compound	parameter_measured	experimental_value
N=C(N)N1CCCC(C[C@@H](C=O)NC(=O)CN2CCCC[C@H](NS(=O)(=O)Cc3ccccc3)C2=O)C1 (single isomer, unassigned) [D]	IC50	> 2.5 µM
N=C(N)N1CCCC(C[C@@H](C=O)NC(=O)CN2CCC[C@H](NS(=O)(=O)Cc3ccccc3)C2=O)C1 (single isomer, unassigned) [A]	IC50	> 25 µM

----------
Measured IC50, listed per entry.
target_or_test_system: Trypsin (Bos taurus)
Sequence (P00760 24-246): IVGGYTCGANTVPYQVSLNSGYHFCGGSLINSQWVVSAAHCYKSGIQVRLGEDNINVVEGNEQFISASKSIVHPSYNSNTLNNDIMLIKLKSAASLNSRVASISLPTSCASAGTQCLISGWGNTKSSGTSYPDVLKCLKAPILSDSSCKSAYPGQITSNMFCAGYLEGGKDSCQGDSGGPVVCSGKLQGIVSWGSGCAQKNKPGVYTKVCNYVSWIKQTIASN

compound	inequality_operator	IC50 (µM)
N=C(N)N1CCCC(C[C@@H](C=O)NC(=O)CN2CCCC[C@H](NS(=O)(=O)Cc3ccccc3)C2=O)C1 (single isomer, unassigned) [C]	=	11.2
N=C(N)N1CCCC(C[C@@H](C=O)NC(=O)CN2CCCC[C@H](NS(=O)(=O)Cc3ccccc3)C2=O)C1 (single isomer, unassigned) [D]	=	34.4
N=C(N)N1CCCC(C[C@@H](C=O)NC(=O)CN2CCC[C@H](NS(=O)(=O)Cc3ccccc3)C2=O)C1 (single isomer, unassigned)	>	25

----------
target_or_test_system: Plasmin (Homo sapiens, UniProt P00747)
Sequence (P00747 97-580 limits assumed): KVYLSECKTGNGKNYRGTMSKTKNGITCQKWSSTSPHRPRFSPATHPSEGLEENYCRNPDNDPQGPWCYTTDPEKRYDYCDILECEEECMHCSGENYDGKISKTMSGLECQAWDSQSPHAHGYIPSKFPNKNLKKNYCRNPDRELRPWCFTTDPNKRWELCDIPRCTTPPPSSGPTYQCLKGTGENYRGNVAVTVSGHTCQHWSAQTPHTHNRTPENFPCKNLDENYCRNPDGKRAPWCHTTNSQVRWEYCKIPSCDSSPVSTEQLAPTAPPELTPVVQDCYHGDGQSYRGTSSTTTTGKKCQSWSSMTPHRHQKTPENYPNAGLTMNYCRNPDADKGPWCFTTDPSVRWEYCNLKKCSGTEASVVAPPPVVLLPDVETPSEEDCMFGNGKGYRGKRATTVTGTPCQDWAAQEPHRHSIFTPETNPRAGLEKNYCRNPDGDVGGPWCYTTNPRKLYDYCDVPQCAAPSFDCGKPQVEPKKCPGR
Sequence (P00747 581-810 limits assumed): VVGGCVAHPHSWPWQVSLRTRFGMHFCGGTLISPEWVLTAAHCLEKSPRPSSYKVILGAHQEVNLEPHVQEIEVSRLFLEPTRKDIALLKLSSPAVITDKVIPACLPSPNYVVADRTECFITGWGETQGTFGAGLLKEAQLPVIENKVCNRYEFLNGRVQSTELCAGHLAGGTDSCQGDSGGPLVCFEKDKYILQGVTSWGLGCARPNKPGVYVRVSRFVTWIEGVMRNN
pIC50: −log10 of the molar value.
parameter_measured: pIC50

compound	parameter_measured	experimental_value
N=C(N)N1CCCC(C[C@@H](C=O)NC(=O)CN2CCC[C@H](NS(=O)(=O)Cc3ccccc3)C2=O)C1 (single isomer, unassigned) [A]	pIC50	< 5.60
